test system: A549; format: cell-based, human; conditions: 72 h
Square brackets hold non-standard residues; d marks the D form. Peptide text beside a SMILES is read from it. NMeL = CN[C@@H](CC(C)C)C(=O)O
Bucketed by reported IC50 A549, buckets being band 1 (below 6 µg/mL), band 2 (6 µg/mL to below 10 µg/mL), band 3 (10 µg/mL or more)

The following molecules have reported results that may help.
CC(C)C[C@H]1NC(=O)[C@@H]2CCCN2C(=O)[C@@H](CC(C)C)NC(=O)[C@@H]2CCCN2C(=O)[C@@H](CC(C)C)NC1=O [Compound Z-8, Cyclo (D-Leu-Pro-D-Leu-Pro-D-Leu)] (cyclo(P[dL]P[dL][dL])); band 3
CC(C)C[C@@H]1NC(=O)[C@@H](CC(C)C)NC(=O)[C@@H]2CCCN2C(=O)[C@H](CC(C)C)NC(=O)[C@@H]2CCCN2C1=O [Compound Z-3, Cyclo (Leu-Pro-Leu-Pro-Leu)] (cyclo(LPLP[dL])); band 2
CC(C)C[C@@H]1NC(=O)[C@H](CC(C)C)N(C)C(=O)[C@H](CC(C)C)NC(=O)[C@H](CC(C)C)N(C)C(=O)[C@H](CC(C)C)NC1=O [galaxamide] (cyclo(LL[NMeL]L[NMeL])); band 2

Input line: Using the reported IC50 A549, which band applies to CC(C)C[C@@H]1NC(=O)[C@H](CC(C)C)N(C)C(=O)[C@H](CC(C)C)NC(=O)[C@@H]2CCCN2C(=O)[C@H](CC(C)C)NC1=O ?
Output line: band 1

Input line: Which IC50 A549 category applies to CC(C)C[C@@H]1NC(=O)[C@@H]2CCCN2C(=O)[C@@H](CC(C)C)NC(=O)[C@@H]2CCCN2C(=O)[C@H](CC(C)C)NC1=O [Compound Z-5, Cyclo (Leu-Pro-Leu-Pro-D-Leu)] (cyclo(LLP[dL]P)) here?
Output line: band 2

Input line: Band for CC(C)C[C@@H]1NC(=O)[C@@H]2CCCN2C(=O)[C@H](CC(C)C)NC(=O)[C@@H]2CCCN2C(=O)[C@H](CC(C)C)NC1=O [Compound Z-2, Cyclo (Leu-Pro-Leu-Pro-Leu)] (cyclo(LLPLP)) ?
Output line: band 2
